- Test system: Fusarium solani
- MEASUREMENT_NOTES: Antifungal activity against Fusarium solani at 28 degC after 48 hr microbroth dilution method
- Assay type: functional
The entries below are paired with their reported MIC.
Report only the number, with the unit µg/mL understood.

>>> df
                                   compound    uom  number
0  COc1ccc2c3c([nH]c2c1)[C@H](CC(C)(C)O)N1C(=O)[C@@H]2CCCN2C(=O)[C@@]1(O)[C@H]3O  µg/mL      50

# ---- query compound ----
Which MIC is reported for this compound? COc1ccc2c3c([nH]c2c1)[C@H](C=C(C)C)N1C(=O)[C@@H]2CCCN2C(=O)[C@@H]1C3 [FUMITREMORGIN]
50
